target: Ribosomal protein S6 kinase alpha-4 (Homo sapiens) (UniProt O75676); conditions: at 1 µM
Sequence (O75676 whole entry, looked up): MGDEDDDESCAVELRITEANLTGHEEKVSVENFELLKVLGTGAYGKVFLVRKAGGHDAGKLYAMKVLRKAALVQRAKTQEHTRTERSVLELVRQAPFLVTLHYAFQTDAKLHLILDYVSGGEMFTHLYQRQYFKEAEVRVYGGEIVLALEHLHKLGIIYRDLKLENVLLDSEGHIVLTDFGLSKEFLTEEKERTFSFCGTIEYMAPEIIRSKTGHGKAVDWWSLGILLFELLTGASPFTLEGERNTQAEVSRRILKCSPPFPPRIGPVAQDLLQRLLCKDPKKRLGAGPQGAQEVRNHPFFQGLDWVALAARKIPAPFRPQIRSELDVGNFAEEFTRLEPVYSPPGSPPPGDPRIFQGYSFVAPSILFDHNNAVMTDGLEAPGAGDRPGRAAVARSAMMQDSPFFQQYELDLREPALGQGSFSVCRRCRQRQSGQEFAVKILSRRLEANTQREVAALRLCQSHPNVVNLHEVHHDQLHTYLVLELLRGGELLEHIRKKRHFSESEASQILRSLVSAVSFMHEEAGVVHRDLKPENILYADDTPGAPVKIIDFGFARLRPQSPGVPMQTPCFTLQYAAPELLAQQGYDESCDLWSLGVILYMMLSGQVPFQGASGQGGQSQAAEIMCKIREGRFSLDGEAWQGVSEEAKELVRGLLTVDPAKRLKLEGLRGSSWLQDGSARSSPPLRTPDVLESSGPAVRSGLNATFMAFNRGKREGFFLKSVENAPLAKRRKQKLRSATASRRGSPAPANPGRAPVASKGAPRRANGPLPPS
quantity.kind: residual activity (%)

# chem.smiles, quantity.kind, result.units, value.measured
records = [
    ("Oc1n[nH]c2nnc(-c3c(-c4ccccc4)nn4ccccc34)cc12", "residual activity", "%", 92),
    ("CCC(=O)Nc1ccc2ncnc(Nc3cccc(Br)c3)c2c1", "residual activity", "%", 94),
    ("CN(C)CCCn1cc(C2=C(c3c[nH]c4ccccc34)C(=O)NC2=O)c2ccccc21", "residual activity", "%", 18),
    ("COc1ccc(S(=O)(=O)N(CCO)c2ccccc2CN(C)C/C=C/c2ccc(Cl)cc2)cc1", "residual activity", "%", 96),
    ("COc1cc2ncnc(N3CCN(C(=O)Nc4ccc(Oc5ccccc5)cc4)CC3)c2cc1OC", "residual activity", "%", 93),
    ("COc1cc2ncc(-c3ccccc3)nc2cc1OC", "residual activity", "%", 83),
    ("c1ccc2c(-c3ccncc3)c[nH]c2c1", "residual activity", "%", 80),
    ("Nc1nc(Nc2ccc(S(N)(=O)=O)cc2)nn1C(=S)Nc1c(F)cccc1F", "residual activity", "%", 19),
    ("COc1cc2ncnc(Nc3ccc(Oc4ccccc4)cc3)c2cc1OC", "residual activity", "%", 89),
    ("Cc1nc(-c2ccccc2)c(-c2ccncc2)o1", "residual activity", "%", 103),
    ("O=C1NC(=O)c2c1c1c3ccccc3[nH]c1c1[nH]c3cc(Br)ccc3c21", "residual activity", "%", 87),
]

###

molecular target: Serine/threonine-protein kinase PAK 2 (Homo sapiens); settings: at 10 µM
Response field class: enum, chosen by comparing residual activity against low: < 80%; middle: ≥ 80% and < 90%; high: ≥ 90%

# chem.smiles, category
records = [
    ("Oc1n[nH]c2nnc(-c3c(-c4ccccc4)nn4ccccc34)cc12", "high"),
    ("O=C1NC(=O)/C(=C\\c2ccc3nccnc3c2)S1", "low"),
    ("CN(C)c1ccc(/C=C2\\C(=O)Nc3ccccc32)cc1", "high"),
    ("CC(C)n1cnc2c(NCc3ccccc3)nc(NCCCO)nc21", "high"),
    ("CC(=O)c1ccc(N2CCOCC2)cc1O", "high"),
    ("CO[C@H]1[C@@H](OC)C[C@H](C)[C@@H](OC)C2=CC(=O)C=C(NC(=O)/C(C)=C/C=C/[C@H](OC)[C@@H](OC(N)=O)/C(C)=C/[C@@H]1C)C2=O", "middle"),
    ("C[C@@H](N)[C@H]1CC[C@H](C(=O)Nc2ccncc2)CC1", "high"),
    ("O=C1c2ccccc2-[n+]2ccc3c([nH]c4ccccc43)c21", "high"),
    ("CO[C@@H]1[C@H](N(C)C(=O)c2ccccc2)C[C@H]2O[C@]1(C)n1c3ccccc3c3c4c(c5c6ccccc6n2c5c31)C(=O)NC4", "low"),
    ("Cc1nc(-c2ccccc2)c(-c2ccncc2)o1", "high"),
    ("Oc1ccc(-c2nc(-c3ccc(F)cc3)c(-c3ccncc3)[nH]2)cc1", "middle"),
    ("Nc1nc(Nc2ccc(S(N)(=O)=O)cc2)nn1C(=S)Nc1c(F)cccc1F", "low"),
    ("Cc1cc2ncc(-c3ccccc3)nc2cc1C", "high"),
    ("CCOc1cc2ncnc(Nc3cccc(Br)c3)c2cc1OCC", "low"),
    ("CCN(CC)CCCCN1c2ccccc2Oc2ccc(Cl)cc21", "high"),
    ("COc1cc2ncnc(N3CCN(C(=O)Nc4ccc(Oc5ccccc5)cc4)CC3)c2cc1OC", "middle"),
    ("O=C(O)c1ccc2c3c1cccc3c(=O)n1c3ccccc3nc21", "high"),
    ("O=Nc1c(-c2c(O)[nH]c3ccccc23)[nH]c2ccccc12", "low"),
    ("COc1ccc(S(=O)(=O)N(CCO)c2ccccc2CN(C)C/C=C/c2ccc(Cl)cc2)cc1", "middle"),
    ("O=c1cc(-c2cccc3c2Sc2ccccc2S3)oc(N2CCOCC2)c1", "high"),
    ("O=C(Nc1cccc(Nc2cc(Nc3cccc(C(F)(F)F)c3)ncn2)c1)C1CC1", "middle"),
]

Hello, the source for this data is ChEMBL document CHEMBL2218924, in case you need it.
